Target Or System: AEA-DA lipid probe targets in Neuro2a cells (Mus musculus, UniProt Q8BWM0)
Sequence (Q8BWM0 whole entry): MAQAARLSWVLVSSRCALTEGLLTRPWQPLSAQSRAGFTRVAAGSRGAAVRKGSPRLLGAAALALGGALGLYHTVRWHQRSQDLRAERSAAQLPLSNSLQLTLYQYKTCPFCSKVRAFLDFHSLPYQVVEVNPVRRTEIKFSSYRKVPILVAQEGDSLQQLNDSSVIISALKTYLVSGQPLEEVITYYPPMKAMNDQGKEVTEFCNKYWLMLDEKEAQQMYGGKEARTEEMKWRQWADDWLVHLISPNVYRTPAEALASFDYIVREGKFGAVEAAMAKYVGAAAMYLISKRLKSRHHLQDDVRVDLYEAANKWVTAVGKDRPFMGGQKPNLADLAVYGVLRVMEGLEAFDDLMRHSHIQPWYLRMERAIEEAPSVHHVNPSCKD
Study Conditions: competitor 25 μM
Measured SILAC ratio, Ptges2, listed per entry for reference.
Lab note: write the figure by itself, no unit.

Previously resolved entries follow.
Compound: CN1CCN(C(=O)c2c(-c3ccccc3)c3cc([N+](=O)[O-])ccc3n2C)CC1
Target Or System: AEA-DA lipid probe targets in Neuro2a cells (Mus musculus, UniProt Q8BWM0)
SILAC ratio, Ptges2: 1.8

Compound: CN1CCN(C(=O)c2[nH]c3ccc([N+](=O)[O-])cc3c2-c2ccccc2)CC1
Target Or System: AEA-DA lipid probe targets in Neuro2a cells (Mus musculus, UniProt Q8BWM0)
SILAC ratio, Ptges2: 1.4

Compound: O=C(/C=C/c1cccnc1)NCCCCC1CCN(C(=O)c2ccccc2)CC1 [FK-866, reference compound]
Target Or System: AEA-DA lipid probe targets in Neuro2a cells (Mus musculus, UniProt Q8BWM0)
SILAC ratio, Ptges2: 1.4

Query compound follows.
Observed SILAC ratio, Ptges2 on AEA-DA lipid probe targets in Neuro2a cells (Mus musculus, UniProt Q8BWM0) for C=CCN(C)CCCCCCOc1ccc(C(=O)c2ccc(Br)cc2)c(F)c1 [Ro 48-8071, reference compound] , please. 1.3

====

Target Or System: AEA-DA lipid probe targets in Neuro2a cells (Mus musculus, UniProt Q91XD7)
Sequence (Q91XD7 30-420): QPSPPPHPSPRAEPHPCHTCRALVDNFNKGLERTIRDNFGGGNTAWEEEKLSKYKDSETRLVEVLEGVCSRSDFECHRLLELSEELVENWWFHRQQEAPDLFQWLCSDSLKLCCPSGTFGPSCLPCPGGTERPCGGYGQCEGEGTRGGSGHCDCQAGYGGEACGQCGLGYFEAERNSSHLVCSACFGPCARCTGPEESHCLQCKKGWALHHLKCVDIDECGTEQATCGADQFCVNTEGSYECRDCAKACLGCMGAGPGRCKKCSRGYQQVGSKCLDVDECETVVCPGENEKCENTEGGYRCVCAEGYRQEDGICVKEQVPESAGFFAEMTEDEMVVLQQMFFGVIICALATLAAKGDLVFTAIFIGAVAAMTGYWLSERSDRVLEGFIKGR
Study Conditions: competitor 25 μM
Measured Metric: SILAC ratio, Creld1
Answer with a number only.

Compound: CN1CCN(C(=O)c2[nH]c3ccc([N+](=O)[O-])cc3c2-c2ccccc2)CC1
Value: 1.8

Compound: O=C(/C=C/c1cccnc1)NCCCCC1CCN(C(=O)c2ccccc2)CC1 [FK-866, reference compound]
Value: 1.3

Compound: C=CCN(C)CCCCCCOc1ccc(C(=O)c2ccc(Br)cc2)c(F)c1 [Ro 48-8071, reference compound]
Value: 1.4

# evaluate next
Hi! What's the reported SILAC ratio, Creld1 for CN1CCN(C(=O)c2c(-c3ccccc3)c3cc([N+](=O)[O-])ccc3n2C)CC1 on AEA-DA lipid probe targets in Neuro2a cells (Mus musculus, UniProt Q91XD7)? 1.8

====

Target Or System: NENF (Homo sapiens, UniProt Q9UMX5)
Construct: Full-length cDNAs encoding for the each protein of interest were subcloned into pcDNA3.1 myc-His A; Myc (myc-His of pcDNA3.1 myc-His A)
Sequence (Q9UMX5 32-172, species assumed): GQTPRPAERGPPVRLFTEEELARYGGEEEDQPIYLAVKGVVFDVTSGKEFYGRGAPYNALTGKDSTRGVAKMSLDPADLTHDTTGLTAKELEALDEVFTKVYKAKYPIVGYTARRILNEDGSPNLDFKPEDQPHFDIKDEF
Experiment Description: In vitro gel-based competition of AEA-DA probe labeling of NENF
Study Conditions: NENF-transfected HEK293T lysates; read-out: IC50, inhibition of AEA-DA labeling of NENF
Measured Metric: IC50 (µM)
Report the value in µM with no unit label.

Requested read-out: IC50. Entry: C=Cc1c(C)c2cc3[n-]c(cc4nc(cc5nc(cc1[n-]2)C(C)=C5CCC(=O)O)C(CCC(=O)O)=C4C)c(C)c3C=C.[Cl-].[Fe+3] 2

====

Target Or System: AEA-DA lipid probe targets in Neuro2a cells (Mus musculus)
Study Conditions: competitor 25 μM
Measured Metric: SILAC ratio, Tmem87a
Lab note: jot the number down without any unit.

Compound: C=CCN(C)CCCCCCOc1ccc(C(=O)c2ccc(Br)cc2)c(F)c1 [Ro 48-8071, reference compound]
Value: 2.3
--
Compound: O=C(/C=C/c1cccnc1)NCCCCC1CCN(C(=O)c2ccccc2)CC1 [FK-866, reference compound]
Value: 1.1
--
Compound: CN1CCN(C(=O)c2c(-c3ccccc3)c3cc([N+](=O)[O-])ccc3n2C)CC1
Value: 1.8

Moving on to another compound below.
Any idea what SILAC ratio, Tmem87a came out for CN1CCN(C(=O)c2[nH]c3ccc([N+](=O)[O-])cc3c2-c2ccccc2)CC1 on AEA-DA lipid probe targets in Neuro2a cells (Mus musculus)? 1.9

Cited source for all entries: patent US10168342B2
